Every entry's value here was drawn from patent US20230065745A1.

Consider the following compounds and their measured pKi readings.
- EXPERIMENTAL_TARGET: CRBN-DDB1 protein complex (Homo sapiens, UniProt Q96SW2)
- Sequence (Q96SW2 whole entry): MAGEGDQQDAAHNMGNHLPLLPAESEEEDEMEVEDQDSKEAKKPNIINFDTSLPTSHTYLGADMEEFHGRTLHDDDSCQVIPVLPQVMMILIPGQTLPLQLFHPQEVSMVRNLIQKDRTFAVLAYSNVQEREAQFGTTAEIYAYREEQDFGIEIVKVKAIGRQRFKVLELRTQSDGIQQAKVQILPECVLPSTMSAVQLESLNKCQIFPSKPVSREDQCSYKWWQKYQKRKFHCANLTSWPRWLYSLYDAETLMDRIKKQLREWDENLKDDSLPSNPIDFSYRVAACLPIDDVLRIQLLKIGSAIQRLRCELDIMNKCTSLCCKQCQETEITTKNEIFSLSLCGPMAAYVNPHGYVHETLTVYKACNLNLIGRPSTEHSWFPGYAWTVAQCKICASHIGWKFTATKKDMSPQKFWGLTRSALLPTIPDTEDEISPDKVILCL
- Sequence (Q16531 whole entry partner): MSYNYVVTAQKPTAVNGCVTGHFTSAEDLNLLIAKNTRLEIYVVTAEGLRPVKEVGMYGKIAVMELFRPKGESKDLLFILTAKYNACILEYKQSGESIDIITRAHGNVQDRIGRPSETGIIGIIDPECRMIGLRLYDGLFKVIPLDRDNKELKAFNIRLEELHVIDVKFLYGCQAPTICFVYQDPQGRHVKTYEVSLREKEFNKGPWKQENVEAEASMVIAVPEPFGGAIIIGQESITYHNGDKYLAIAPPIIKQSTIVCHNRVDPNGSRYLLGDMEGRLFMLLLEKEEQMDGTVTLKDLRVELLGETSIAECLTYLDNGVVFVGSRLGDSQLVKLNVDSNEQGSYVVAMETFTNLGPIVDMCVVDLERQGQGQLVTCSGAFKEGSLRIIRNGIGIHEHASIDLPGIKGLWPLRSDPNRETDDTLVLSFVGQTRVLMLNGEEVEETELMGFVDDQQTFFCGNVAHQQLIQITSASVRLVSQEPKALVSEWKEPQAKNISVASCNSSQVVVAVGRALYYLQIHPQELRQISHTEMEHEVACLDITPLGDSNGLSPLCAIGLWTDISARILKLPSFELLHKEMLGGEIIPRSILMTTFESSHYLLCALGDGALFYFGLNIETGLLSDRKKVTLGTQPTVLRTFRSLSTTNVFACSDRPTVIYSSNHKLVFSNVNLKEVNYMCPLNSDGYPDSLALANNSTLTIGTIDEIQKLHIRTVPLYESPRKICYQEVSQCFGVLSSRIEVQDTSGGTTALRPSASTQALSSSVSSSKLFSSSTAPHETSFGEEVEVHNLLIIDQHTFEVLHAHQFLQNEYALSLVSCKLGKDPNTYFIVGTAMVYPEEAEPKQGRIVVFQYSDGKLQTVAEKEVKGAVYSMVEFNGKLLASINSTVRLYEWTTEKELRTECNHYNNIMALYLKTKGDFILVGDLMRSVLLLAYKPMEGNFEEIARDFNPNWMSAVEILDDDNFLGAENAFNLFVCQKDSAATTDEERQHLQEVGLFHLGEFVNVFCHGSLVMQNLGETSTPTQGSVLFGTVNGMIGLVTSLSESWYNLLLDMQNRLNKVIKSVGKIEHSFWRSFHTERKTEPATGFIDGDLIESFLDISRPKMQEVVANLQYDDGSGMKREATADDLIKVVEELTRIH
- TEST_SUMMARY: Fluorescence Polarization (FP) assay, displacement of Cy5-labelled thalidomide
- CONDITION_NOTES: 25 nM CRBN-DDB1, 5 nM Cy5-labelled thalidomide, read-out: CRBN binding Ki
pKi: −log10 of the molar value.
QUANTITY_KIND: pKi

- CC(=O)Nc1sc(C(F)(F)F)cc1C(=O)NC1CCC(=O)NC1=O (centres unmarked): 5.00 to 5.30
- COc1sc(C)cc1C(=O)NC1CCC(=O)NC1=O (centres unmarked): > 5.30
- CC(=O)Nc1sc(C2CC2)cc1C(=O)NC1CCC(=O)NC1=O (centres unmarked): > 5.30
- COc1scnc1C(=O)NC1CCC(=O)NC1=O (centres unmarked): 5.00 to 5.30
- COc1sccc1C(=O)N[C@H]1CCC(=O)NC1=O: > 5.30

###

- EXPERIMENTAL_TARGET: CRBN-DDB1 protein complex (Homo sapiens)
- TEST_SUMMARY: Fluorescence Polarization (FP) assay, displacement of Cy5-labelled thalidomide
- CONDITION_NOTES: 25 nM CRBN-DDB1, 5 nM Cy5-labelled thalidomide, read-out: CRBN binding Ki
QUANTITY_KIND: Ki

- O=C1CCC(NC(=O)c2csc(=O)[nH]2)C(=O)N1 (centres unmarked): 5 to 10 µM
- CCOc1sccc1C(=O)NC1CCC(=O)NC1=O (centres unmarked): < 5 µM
- CNc1scnc1C(=O)NC1CCC(=O)NC1=O (centres unmarked): 10 to 50 µM
- CC(=O)Nc1sc(Cl)cc1C(=O)NC1CCC(=O)NC1=O (centres unmarked): 5 to 10 µM
- CNc1sc(Cl)cc1C(=O)NC1CCC(=O)NC1=O (centres unmarked): < 5 µM
- CC(=O)Nc1sc(C#N)cc1C(=O)NC1CCC(=O)NC1=O (centres unmarked): < 5 µM
- CSc1ncc(C(=O)NC2CCC(=O)NC2=O)s1 (centres unmarked): 10 to 50 µM
- COc1sc(Br)cc1C(=O)NC1CCC(=O)NC1=O (centres unmarked): < 5 µM
- CC(C)(C)OC(=O)NCc1sccc1C(=O)NC1CCC(=O)NC1=O (centres unmarked): 10 to 50 µM
- COc1sc(-c2ccccc2)cc1C(=O)NC1CCC(=O)NC1=O (centres unmarked): < 5 µM
- COc1sccc1C(=O)NC1CCC(=O)NC1=O (centres unmarked): < 5 µM
- O=C1CCC(NC(=O)c2scc3cccnc23)C(=O)N1 (centres unmarked): < 5 µM
- NCc1csc(C(=O)NC2CCC(=O)NC2=O)c1 (centres unmarked): 10 to 50 µM
- O=C1CCC(NC(=O)c2c[nH]c3nccc(Cl)c23)C(=O)N1 (centres unmarked): 5 to 10 µM
- CC(=O)Nc1cc(Cl)sc1C(=O)NC1CCC(=O)NC1=O (centres unmarked): 10 to 50 µM
- CC(=O)Nc1sc(C2CC2)c(Cl)c1C(=O)NC1CCC(=O)NC1=O (centres unmarked): 5 to 10 µM
- O=C1CCC(NC(=O)c2cc(Cl)sc2NC(=O)Cc2ccccc2)C(=O)N1 (centres unmarked): 5 to 10 µM
- C[C@H](O)C(=O)Nc1sc(Cl)cc1C(=O)NC1CCC(=O)NC1=O (some centres unmarked): 10 to 50 µM
- NCc1ccc(C(=O)NC2CCC(=O)NC2=O)s1 (centres unmarked): 10 to 50 µM
- Nc1sc(Cl)cc1C(=O)NC1CCC(=O)NC1=O (centres unmarked): < 5 µM

###

- EXPERIMENTAL_TARGET: CRBN-DDB1 protein complex (Homo sapiens, UniProt Q96SW2)
- TEST_SUMMARY: Fluorescence Polarization (FP) assay, displacement of Cy5-labelled thalidomide
- CONDITION_NOTES: 25 nM CRBN-DDB1, 5 nM Cy5-labelled thalidomide, read-out: CRBN binding Ki
QUANTITY_KIND: Ki

• COc1sc(C2CC2)cc1C(=O)NC1CCC(=O)NC1=O (stereo not drawn) [Compound 32] = < 5 µM
• O=C1CCC(NC(=O)c2cnc(CNC(=O)OCc3ccccc3)s2)C(=O)N1 (stereo not drawn) [Compound 74] = 10 to 50 µM
• CCCCC(=O)Nc1sc(Cl)cc1C(=O)NC1CCC(=O)NC1=O (stereo not drawn) [Compound 3] = < 5 µM
• Cn1cc(C(=O)NC2CCC(=O)NC2=O)c2cccnc21 (stereo not drawn) [Compound 98] = 10 to 50 µM
• O=C1CCC(NC(=O)c2c[nH]c3ncc(Cl)cc23)C(=O)N1 (stereo not drawn) [Compound 99] = 5 to 10 µM
• O=C1CCC(NC(=O)c2ccsc2C2CC2)C(=O)N1 (stereo not drawn) [Compound 66] = 10 to 50 µM
• CC(C)(C)c1ncc(C(=O)NC2CCC(=O)NC2=O)s1 (stereo not drawn) [Compound 73] = 10 to 50 µM
• CC(C)(C)OC(=O)NCc1nc(C(=O)NC2CCC(=O)NC2=O)cs1 (stereo not drawn) [Compound 77] = 5 to 10 µM
• O=C1CCC(NC(=O)c2sc(Br)c3cccnc23)C(=O)N1 (stereo not drawn) [Compound 96] = < 5 µM

###

- EXPERIMENTAL_TARGET: CRBN-DDB1 protein complex (Homo sapiens)
- TEST_SUMMARY: Fluorescence Polarization (FP) assay, displacement of Cy5-labelled thalidomide
- CONDITION_NOTES: 25 nM CRBN-DDB1, 5 nM Cy5-labelled thalidomide, read-out: CRBN binding Ki
QUANTITY_KIND: Ki

- O=C1CCC(NC(=O)c2ncsc2C2CC2)C(=O)N1 (stereo not drawn) [Compound 82]: 10 to 50 µM
- CC(=O)Nc1ccsc1C(=O)NC1CCC(=O)NC1=O (stereo not drawn) [Compound 7]: 5 to 10 µM
- CC(C)(C)OC(=O)Nc1sccc1C(=O)NC1CCC(=O)NC1=O (stereo not drawn) [Compound 1]: 10 to 50 µM
- COc1ncc(C(=O)NC2CCC(=O)NC2=O)s1 (stereo not drawn) [Compound 75]: 10 to 50 µM
- Nc1sccc1C(=O)NC1CCC(=O)NC1=O (stereo not drawn) [Compound 36]: < 5 µM
- O=C1CCC(NC(=O)c2cc(Cl)sc2NC(=O)C2CC2)C(=O)N1 (stereo not drawn) [Compound 6]: < 5 µM
- COc1ccsc1C(=O)NC1CCC(=O)NC1=O (stereo not drawn) [Compound 108]: < 5 µM
- CC(=O)Nc1scc(Cl)c1C(=O)NC1CCC(=O)NC1=O (stereo not drawn) [Compound 43]: 10 to 50 µM
- CC(C)(C)OC(=O)Nc1ncc(C(=O)NC2CCC(=O)NC2=O)s1 (stereo not drawn) [Compound 71]: < 5 µM
- Nc1ncc(C(=O)NC2CCC(=O)NC2=O)s1 (stereo not drawn) [Compound 112]: 5 to 10 µM
- COc1csc(NC(C)=O)c1C(=O)NC1CCC(=O)NC1=O (stereo not drawn) [Compound 8]: 5 to 10 µM
- COc1scc(C)c1C(=O)NC1CCC(=O)NC1=O (stereo not drawn) [Compound 29]: 5 to 10 µM
- COc1sc(N)nc1C(=O)NC1CCC(=O)NC1=O (stereo not drawn) [Compound 80]: < 5 µM
- O=C1CCC(NC(=O)c2ccsc2-n2cccn2)C(=O)N1 (stereo not drawn) [Compound 39]: 10 to 50 µM
- O=C1CCC(NC(=O)c2csc(-c3ccccc3)c2)C(=O)N1 (stereo not drawn) [Compound 57]: < 5 µM
- CC(C)(C)OC(=O)NCc1csc(C(=O)NC2CCC(=O)NC2=O)c1 (stereo not drawn) [Compound 51]: < 5 µM
- COc1sccc1C(=O)N[C@@H]1CCC(=O)NC1=O [Compound 22]: 10 to 50 µM
- COc1cscc1C(=O)NC1CCC(=O)NC1=O (stereo not drawn) [Compound 54]: < 5 µM
- O=C1CCC(NC(=O)c2ccoc2C2CC2)C(=O)N1 (stereo not drawn) [Compound 47]: 10 to 50 µM
- COc1sc(C(C)(C)C)cc1C(=O)NC1CCC(=O)NC1=O (stereo not drawn) [Compound 35]: < 5 µM
- O=C1CCC(NC(=O)c2cc(O)cs2)C(=O)N1 (stereo not drawn) [Compound 53]: < 5 µM

###

- EXPERIMENTAL_TARGET: CRBN-DDB1 protein complex (Homo sapiens)
- TEST_SUMMARY: Fluorescence Polarization (FP) assay, displacement of Cy5-labelled thalidomide
- CONDITION_NOTES: 25 nM CRBN-DDB1, 5 nM Cy5-labelled thalidomide, read-out: CRBN binding Ki
Entries and their measured Ki follow.
QUANTITY_KIND: Ki

* CC(=O)Nc1sccc1C(=O)N(C)C1CCC(=O)NC1=O (stereo not shown) | 10 to 50 µM
* O=C1CCC(NC(=O)c2sc(Cl)c3cccnc23)C(=O)N1 (stereo not shown) | < 5 µM
* COCc1ncc(C(=O)NC2CCC(=O)NC2=O)s1 (stereo not shown) | 10 to 50 µM
* CCOc1oc(C)nc1C(=O)NC1CCC(=O)NC1=O (stereo not shown) | 10 to 50 µM
* CC(C)(C)OC(=O)NCc1ccc(C(=O)NC2CCC(=O)NC2=O)s1 (stereo not shown) | < 5 µM
* CS(=O)(=O)Nc1sccc1C(=O)NC1CCC(=O)NC1=O (stereo not shown) | 5 to 10 µM
* COc1sc(Cl)cc1C(=O)NC1CCC(=O)NC1=O (stereo not shown) | < 5 µM
